The measurements presented in this section are drawn from the supplement of paper PMC3545927.

- studyTarget: furin, P09958;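 note: purified furin at 1:10 enzyme:substrate in 50 mM HEPES pH 7.5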
- Sequence (P09958 whole entry): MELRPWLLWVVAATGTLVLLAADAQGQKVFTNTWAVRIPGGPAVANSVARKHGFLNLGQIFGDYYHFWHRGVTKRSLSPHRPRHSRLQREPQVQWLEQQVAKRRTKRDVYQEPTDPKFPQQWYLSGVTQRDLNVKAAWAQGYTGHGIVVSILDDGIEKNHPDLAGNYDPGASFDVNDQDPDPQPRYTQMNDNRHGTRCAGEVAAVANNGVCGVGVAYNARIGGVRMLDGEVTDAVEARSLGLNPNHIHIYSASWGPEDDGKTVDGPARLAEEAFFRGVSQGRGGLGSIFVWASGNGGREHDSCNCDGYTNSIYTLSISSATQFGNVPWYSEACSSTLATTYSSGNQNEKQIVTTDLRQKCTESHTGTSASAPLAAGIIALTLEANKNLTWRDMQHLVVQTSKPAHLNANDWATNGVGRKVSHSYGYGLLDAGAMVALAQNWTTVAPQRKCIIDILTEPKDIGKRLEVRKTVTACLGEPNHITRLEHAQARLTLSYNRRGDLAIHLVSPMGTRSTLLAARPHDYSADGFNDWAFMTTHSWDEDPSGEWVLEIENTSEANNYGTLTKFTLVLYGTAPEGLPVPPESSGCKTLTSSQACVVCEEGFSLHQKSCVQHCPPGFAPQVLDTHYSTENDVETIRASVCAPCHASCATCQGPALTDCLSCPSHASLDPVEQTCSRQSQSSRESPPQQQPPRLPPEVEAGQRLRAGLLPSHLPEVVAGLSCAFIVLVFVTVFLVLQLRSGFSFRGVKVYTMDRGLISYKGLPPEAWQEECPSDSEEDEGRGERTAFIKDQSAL
- experiment: furin cleavage Z-score vs untreated control; higher = more cleavage, active = 3.5 or more, inactive = 1 or less, 8 variable residues between constant flanks
- testParameters: 15 min
Some of the results follow. The hit rate among all sequences tested is not known here.
# if value of furin cleavage Z-score reaches 0.02, tag Y; if it stays below, tag N

residueString	class
CAVVCCSHSYAGNASASA [HC2055]	N
CASTPCSADLAGNASASA [HC2551]	N
CAISQAEAALAGNASASA [HC531]	N
CALQRRWKRTAGNASASA [FS-685]	Y
CALTTSCGNTAGNASASA [HC1513]	N
CAGQARWKRPAGNASASA [FS-656]	Y
CAYSQRWKRTAGNASASA [FS-904]	Y
CALQGREQLTAGNASASA [FS-1882]	N
CALTYRAKRTAGNASASA [FS-1033]	Y
CADGAGKRVYAGNASASA [HC1558]	Y
CAVVCCSVSYAGNASASA [HC2050]	N
